The reported numbers originate from paper PMC8118430.

Measured IC50, listed per entry.
- testedSystem: COX-2 (Homo sapiens, UniProt P35354)
- Sequence (P35354 18-604): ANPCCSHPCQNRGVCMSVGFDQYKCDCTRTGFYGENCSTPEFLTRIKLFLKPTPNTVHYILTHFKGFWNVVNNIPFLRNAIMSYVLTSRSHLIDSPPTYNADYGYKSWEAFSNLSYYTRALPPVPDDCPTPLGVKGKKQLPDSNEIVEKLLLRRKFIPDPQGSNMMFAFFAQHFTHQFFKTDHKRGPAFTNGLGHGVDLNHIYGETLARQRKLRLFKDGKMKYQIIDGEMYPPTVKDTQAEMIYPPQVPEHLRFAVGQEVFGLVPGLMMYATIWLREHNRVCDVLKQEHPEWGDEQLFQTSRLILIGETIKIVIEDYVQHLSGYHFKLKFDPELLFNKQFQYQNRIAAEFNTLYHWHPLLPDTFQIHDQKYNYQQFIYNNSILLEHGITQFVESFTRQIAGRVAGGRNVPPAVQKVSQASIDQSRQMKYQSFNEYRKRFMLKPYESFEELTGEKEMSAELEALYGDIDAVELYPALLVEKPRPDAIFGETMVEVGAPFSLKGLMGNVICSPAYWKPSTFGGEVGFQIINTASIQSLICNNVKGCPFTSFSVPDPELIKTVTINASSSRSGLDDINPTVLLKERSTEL
- assay: Cyclooxygenase COX-2 inhibition assay (Cayman COX inhibitor screening kit, EIA)
metric: IC50 (nM)

molsmiles=CN(C)c1ccc(C=C2C=C(c3ccc(Cl)c(Cl)c3)N(c3ccccc3)NC2=O)cc1 testedsystem="COX-2 (Homo sapiens, UniProt P35354)" displayunit=nM observedvalue=90
molsmiles=O=C1NN(C(=O)c2ccccc2)C(c2ccc(Cl)c(Cl)c2)=CC1=Cc1ccccc1[N+](=O)[O-] testedsystem="COX-2 (Homo sapiens, UniProt P35354)" displayunit=nM observedvalue=70
molsmiles=NNC(=O)C(=Cc1cccc([N+](=O)[O-])c1)CC(=O)c1ccc(Cl)c(Cl)c1 testedsystem="COX-2 (Homo sapiens, UniProt P35354)" displayunit=nM observedvalue=80
molsmiles=NNC(=O)C(=Cc1ccccc1[N+](=O)[O-])CC(=O)c1ccc(Cl)c(Cl)c1 testedsystem="COX-2 (Homo sapiens, UniProt P35354)" displayunit=nM observedvalue=90
molsmiles=CN(C)c1ccc(C=C(CC(=O)c2ccc(Cl)c(Cl)c2)C(=O)NN)cc1 testedsystem="COX-2 (Homo sapiens, UniProt P35354)" displayunit=nM observedvalue=100
